Source listed as ChEMBL document CHEMBL3351305.

assay: Inhibition of human leukocyte elastase
parameter: IC50
Report field: quantity (unit follows the number).

Record request: IC50 value, item CCC[C@H](NC(=O)[C@@H]1[C@H]2CCC[C@H]2CN1C(=O)[C@@H](NC(=O)[C@@H](NC(=O)c1cnccn1)C1CCCCC1)C(C)(C)C)C(=O)C(=O)NC1CC1
600 nM

###

assay: Half life in human liver microsomes; type: ADME
parameter: half-life

Go through the list and state half-life for each entry.
1. COc1ccc2c(OC[C@@H]3C[C@H]4C(=O)N(C)CCCC/C=C\[C@H]5C[C@]5(C(=O)NS(=O)(=O)C5(C)CC5)NC(=O)N34)cc(-c3nc(C(C)C)cs3)nc2c1C
2. COc1ccc2c(OC[C@@H]3C[C@H]4C(=O)N(C)CCCC/C=C\[C@H]5C[C@]5(C(=O)NS(=O)(=O)C5(C)CC5)NC(=O)N34)cc(-c3nc(C(C)C)cs3)nc2c1Cl

1: < 10 min; 2: < 10 min

###

assay: Half life in rat liver microsomes; type: ADME
Could you please report measured half-life for the items listed next?

compoundString: COc1ccc2c(OC[C@@H]3C[C@H]4C(=O)N(C)CCCC/C=C\[C@H]5C[C@]5(C(=O)NS(=O)(=O)C5(C)CC5)NC(=O)N34)cc(-c3nc(C(C)C)cs3)nc2c1C
half-life: < 10 min

Reported half-life for COc1ccc2c(OC[C@@H]3C[C@H]4C(=O)N(C)CCCC/C=C\[C@H]5C[C@]5(C(=O)NS(=O)(=O)C5(C)CC5)NC(=O)N34)cc(-c3nc(C(C)C)cs3)nc2c1Cl : what is it?
< 10 min

###

assay: Selectivity index, ratio of CC50 for human Huh7 cells to EC50 for Hepatitis C virus genotype 1b Con1; type: toxicity, cell-based, Huh-7; conditions: read-out: Ratio CC50/EC50
parameter: selectivity ratio

Given the compound COc1ccc2c(OC[C@@H]3C[C@H]4C(=O)N(C)CCCC/C=C\[C@H]5C[C@]5(C(=O)NS(=O)(=O)C5(C)CC5)NC(=O)N34)cc(-c3nc(C(C)C)cs3)nc2c1Cl , what is its reported selectivity ratio?
> 1500

###

target: Hepatitis C virus serine protease, NS3/NS4A (Hepatitis C virus, UniProt A3EZI9+D2K2A8); assay: Inhibition of full length Hepatitis C virus genotype 1b Con1 NS3/4A by FRET assay
Sequence (D2K2A8 whole entry): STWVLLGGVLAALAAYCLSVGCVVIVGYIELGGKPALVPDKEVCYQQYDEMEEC
Sequence (A3EZI9 whole entry): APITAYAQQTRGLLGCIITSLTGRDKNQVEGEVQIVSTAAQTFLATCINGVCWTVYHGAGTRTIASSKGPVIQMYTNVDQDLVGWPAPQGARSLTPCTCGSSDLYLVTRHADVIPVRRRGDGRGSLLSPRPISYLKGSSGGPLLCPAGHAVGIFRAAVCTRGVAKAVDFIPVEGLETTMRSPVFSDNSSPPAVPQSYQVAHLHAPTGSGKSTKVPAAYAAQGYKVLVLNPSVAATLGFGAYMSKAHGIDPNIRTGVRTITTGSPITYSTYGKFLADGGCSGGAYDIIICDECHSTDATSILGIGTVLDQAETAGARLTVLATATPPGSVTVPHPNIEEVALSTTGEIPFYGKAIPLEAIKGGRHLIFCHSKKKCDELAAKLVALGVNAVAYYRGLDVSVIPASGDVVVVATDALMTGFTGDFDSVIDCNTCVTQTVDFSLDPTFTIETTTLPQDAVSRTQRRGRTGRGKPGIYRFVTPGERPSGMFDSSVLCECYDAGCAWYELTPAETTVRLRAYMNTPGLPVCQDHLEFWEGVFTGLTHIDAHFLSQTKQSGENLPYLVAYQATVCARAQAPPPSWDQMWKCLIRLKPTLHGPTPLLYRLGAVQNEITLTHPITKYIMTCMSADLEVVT
Provide the recorded log10(IC50) for the entries that follow.
Annotation: log10 of IC50, nM basis.

compound: COc1ccc2c(OC[C@@H]3C[C@H]4C(=O)N(C)CCCC/C=C\[C@H]5C[C@]5(C(=O)NS(=O)(=O)C5(C)CC5)NC(=O)N34)cc(-c3nc(C(C)C)cs3)nc2c1C
log10(IC50): 0.82

Consider the following items and state reported log10(IC50) for each.
1. COc1ccc2c(OC[C@H]3C[C@@H]4C(=O)N[C@@]5(C(=O)NS(=O)(=O)C6CC6)C[C@@H]5/C=C\CCCCN(C)C(=O)N34)cc(-c3ccccc3)nc2c1
2. COc1ccc2c(OC[C@@H]3C[C@H]4C(=O)N(C)CCCC/C=C\[C@H]5C[C@]5(C(=O)NS(=O)(=O)C5(C)CC5)NC(=O)N34)cc(-c3nc(C(C)C)cs3)nc2c1Cl

[2.44, 0.32]

Hi! Can you tell me log10(IC50) for each of these compounds?
1. COc1ccc2c(OC[C@@H]3C[C@H]4C(=O)N[C@@]5(C(=O)NS(=O)(=O)C6CC6)C[C@@H]5/C=C\CCCCN(C)C(=O)N34)cc(-c3ccccc3)nc2c1
2. COc1ccc2c(OC[C@@H]3C[C@H]4C(=O)N(C)CCCC/C=C\[C@H]5C[C@]5(C(=O)NS(=O)(=O)C5(C)CC5)NC(=O)N34)cc(-c3nc(C(C)C)cs3)nc2c1F
3. COc1ccc2c(OC[C@@H]3C[C@H]4C(=O)N(C)CCCC/C=C\[C@H]5C[C@]5(C(=O)NS(=O)(=O)C5CC5)NC(=O)N34)cc(-c3ccccc3)nc2c1
4. COc1ccc2c(O[C@@H]3C[C@H]4C(=O)N[C@]5(C(=O)O)C[C@H]5/C=C\CCCCC[C@H](NC(=O)OC5CCCC5)C(=O)N4C3)cc(-c3csc(NC(C)C)n3)nc2c1 [CILUPREVIR]
5. COc1ccc2c(OC[C@@H]3C[C@H]4C(=O)N(C)CCCC/C=C\[C@H]5C[C@]5(C(=O)NS(=O)(=O)C5(C)CC5)NC(=O)N34)cc(-c3nc(C(C)C)cs3)nc2c1
6. COc1ccc2c(OC[C@H]3C[C@@H]4C(=O)N(C)CCCC/C=C\[C@H]5C[C@]5(C(=O)NS(=O)(=O)C5CC5)NC(=O)N34)cc(-c3ccccc3)nc2c1

1. 3.38
2. 1.23
3. 1.65
4. -0.10
5. 0.11
6. 0.54
